Data origin: patent US20260034252A1

TARGET OR SYSTEM: FAP (Homo sapiens (Human))
PROTOCOL: surface plasmon resonance assay
Type: binding
COND: read-out: affinity
QUANTITY NAME: Kd
Kindly report the value followed by its unit.

Give recorded Kd with FAP (Homo sapiens (Human)) for the following molecule: CN(CCCN1CCN(C(=O)CN2CCN(CC(=O)O)CCN(CC(=O)O)CCN(CC(=O)O)CC2)CC1)c1ccc2nccc(C(=O)NCC(=O)N3CC(F)(F)C[C@H]3C#N)c2c1
0.255 nM

----------
Entries with reported IC50 on FAP (Homo sapiens (Human), UniProt Q12884)
Sequence (Q12884 whole entry): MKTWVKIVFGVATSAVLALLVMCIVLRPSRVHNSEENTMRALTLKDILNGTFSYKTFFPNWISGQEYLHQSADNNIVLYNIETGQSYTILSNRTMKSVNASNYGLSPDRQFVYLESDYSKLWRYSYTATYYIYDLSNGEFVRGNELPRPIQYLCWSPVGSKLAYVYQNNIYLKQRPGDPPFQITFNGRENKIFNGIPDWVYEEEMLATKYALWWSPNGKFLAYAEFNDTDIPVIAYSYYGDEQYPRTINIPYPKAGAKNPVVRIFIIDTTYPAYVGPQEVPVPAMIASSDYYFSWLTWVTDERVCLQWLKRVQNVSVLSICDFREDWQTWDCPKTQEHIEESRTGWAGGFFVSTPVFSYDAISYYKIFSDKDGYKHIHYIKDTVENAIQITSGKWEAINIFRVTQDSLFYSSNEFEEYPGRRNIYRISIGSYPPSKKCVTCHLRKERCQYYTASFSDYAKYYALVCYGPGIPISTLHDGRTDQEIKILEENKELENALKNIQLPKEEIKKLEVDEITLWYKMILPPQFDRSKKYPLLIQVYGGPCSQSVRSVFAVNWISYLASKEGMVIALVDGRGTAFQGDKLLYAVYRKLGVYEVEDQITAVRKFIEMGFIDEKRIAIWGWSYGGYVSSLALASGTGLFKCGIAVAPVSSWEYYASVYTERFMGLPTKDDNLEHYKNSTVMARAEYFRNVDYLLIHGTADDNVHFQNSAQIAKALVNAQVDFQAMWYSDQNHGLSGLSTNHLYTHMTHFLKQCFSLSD

Guide cases for IC50, answers given:
# COMPOUND, IC50
data = [
    ("CC(C)Cc1ccc(CC(=O)NCCCC[C@H](NC(=O)[C@H](CCCCNC(=O)CN2CCN(CC(=O)O)CCN(CC(=O)O)CCN(CC(=O)O)CC2)NC(=O)CCOCCOCCOCCNC(=O)COc2ccc3c(C(=O)NCC(=O)N4CCC[C@H]4C#N)ccnc3c2)C(=O)O)cc1 [RTX-1354S]", "< 0.1 nM"),
    ("CCCC(=O)NCCCC[C@H](NC(=O)[C@H](CCCCNC(=S)Nc1ccc(CC2CN(CC(=O)O)CCN(CC(=O)O)CCN2CC(=O)O)cc1)NC(=O)CCOCCOCCOCCNC(=O)COc1ccc2c(C(=O)NCC(=O)N3CCC[C@H]3C#N)ccnc2c1)C(=O)O (some centres unmarked) [RTX-1317S]", "0.1 to 0.5 nM"),
    ("CCCC(=O)NCCCC[C@H](NC(=O)[C@H](CCCCNC(=O)CN1CCN(CC(=O)O)CCN(CC(=O)O)CC1)NC(=O)CCOCCOCCOCCNC(=O)COc1ccc2c(C(=O)NCC(=O)N3CCC[C@H]3C#N)ccnc2c1)C(=O)O [RTX-1340S]", "0.1 to 0.5 nM"),
]

Form field - read-out: IC50; system: FAP (Homo sapiens (Human), UniProt Q12884); submitted item: CC(=O)NCCCC[C@H](NC(=O)[C@H](CCCCNC(=O)c1ccc(F)c(C(F)(F)F)c1)NC(=O)CCOCCOCCOCCNC(=O)COc1ccc2c(C(=O)NCC(=O)N3CCC[C@H]3C#N)ccnc2c1)C(=O)O [RTX-1325S]
0.5 to 5 nM

API: value(readout=IC50, system=FAP (Homo sapiens (Human), UniProt Q12884)) for record CC(=O)NCCCC[C@H](NC(=O)[C@H](CCCCNC(=O)c1ccc(F)c(C#N)c1)NC(=O)CCOCCOCCOCCNC(=O)COc1ccc2c(C(=O)NCC(=O)N3CCC[C@H]3C#N)ccnc2c1)C(=O)O [RTX-1324S]
< 0.1 nM

Enter reported IC50 observed with FAP (Homo sapiens (Human), UniProt Q12884) for CC(C)Cc1ccc(CCCC(=O)NCCCC[C@H](NC(=O)[C@H](CCCCNC(=O)CN2CCN(CC(=O)O)CCN(CC(=O)O)CCN(CC(=O)O)CC2)NC(=O)CCOCCOCCOCCNC(=O)COc2ccc3c(C(=O)NCC(=O)N4CCC[C@H]4C#N)ccnc3c2)C(=O)O)cc1 [RTX-1352S]
< 0.1 nM

What value of IC50 on FAP (Homo sapiens (Human), UniProt Q12884) does CC(C)Cc1ccc(CC(=O)NCCCC[C@H](NC(=O)[C@H](CCCCNC(=O)CN2CCN(CC(=O)O)CCN(CC(=O)O)CCN(CC(=O)O)CC2)NC(=O)CCOCCOCCOCCNC(=O)COc2ccc3c(C(=O)NCC(=O)N4CCC[C@H]4B(O)O)ccnc3c2)C(=O)O)cc1 [RTX-1359R] have?
< 0.1 nM

Field: IC50 (FAP (Homo sapiens (Human), UniProt Q12884)). Entry: CC(C)Cc1ccc(CC(=O)NCCCC[C@H](NC(=O)[C@H](CCCCNC(=S)Nc2ccc(CCOc3cc(CN4CCOCCOCCN(Cc5cccc(C(=O)O)n5)CCOCCOCC4)nc(C(=O)O)c3)cc2)NC(=O)CCOCCOCCOCCNC(=O)COc2ccc3c(C(=O)NCC(=O)N4CCC[C@H]4B(O)O)ccnc3c2)C(=O)O)cc1 [RTX-1399R]
0.1 to 0.5 nM

Form: Entry = COc1ccc2c(C(=O)NCC(=O)N3CCC[C@H]3C#N)ccnc2c1 [RTX-1326S] | System = FAP (Homo sapiens (Human), UniProt Q12884) | IC50 = ____
0.5 to 5 nM

// fetch FAP (Homo sapiens (Human), UniProt Q12884) IC50 for CCCCCC(=O)NCCCC[C@H](NC(=O)[C@H](CCCCNC(=O)CN1CCN(CC(=O)O)CCN(CC(=O)O)CCN(CC(=O)O)CC1)NC(=O)CCOCCOCCOCCNC(=O)COc1ccc2c(C(=O)NCC(=O)N3CCC[C@H]3B(O)O)ccnc2c1)C(=O)O [RTX-1361R]
< 0.1 nM

GET /values?readout=IC50&system=FAP (Homo sapiens (Human), UniProt Q12884)&item= CCCCCCCC(=O)NCCCC[C@H](NC(=O)[C@H](CCCCNC(=O)CN1CCN(CC(=O)O)CCN(CC(=O)O)CCN(CC(=O)O)CC1)NC(=O)CCOCCOCCOCCNC(=O)COc1ccc2c(C(=O)NCC(=O)N3CCC[C@H]3C#N)ccnc2c1)C(=O)O [RTX-1350S]
< 0.1 nM
